- System: genotype 1a (H77) wild-type transient HCV replicon in Huh-7-derived cells
- methodSummary: Transient-transfected HCV replicon, genotype 1a wild type
- Format: cell-based
- experimentalSetup: Hepatitis C virus; transient-transfected replicon genotype 1a wild type, 72 h; read-out: EC50 1A WT

# compound, EC50 (nM)
measured = [
    ("CC(C)(C)[C@@H]1NC(=O)O[C@@H]2C[C@@H]3C[C@@H]3[C@H]2CCCCC(F)(F)c2nc3ccccc3nc2O[C@@H]2C[C@@H](C(=O)N[C@]3(C(=O)NS(=O)(=O)C4(C)CC4)C[C@H]3C(F)F)N(C2)C1=O [Example 17]", 3.3),
    ("COc1ccc2nc3c(nc2c1)O[C@@H]1C[C@@H](C(=O)N[C@]2(C(=O)NS(=O)(=O)C4(C)CC4)C[C@H]2C(F)F)N(C1)C(=O)[C@H](C(C)(C)C)NC(=O)O[C@@H]1C[C@@H]2C[C@@H]2[C@H]1CCCCC3 [Example 2]", 1.1),
    ("COc1ccc2cc3c(nc2c1)O[C@@H]1C[C@@H](C(=O)N[C@]2(C(=O)NS(=O)(=O)C4CC4)C[C@H]2C(F)F)N(C1)C(=O)[C@H](C(C)(C)C)NC(=O)O[C@@H]1C[C@@H]2C[C@@H]2[C@H]1CCCCC3 [Example 21]", 1.5),
    ("CC(C)(C)[C@@H]1NC(=O)O[C@@H]2C[C@@H]3C[C@@H]3[C@H]2CCCCCc2nc3ccc(Cl)cc3nc2O[C@@H]2C[C@@H](C(=O)N[C@]3(C(=O)NS(=O)(=O)C4CC4)C[C@H]3C(F)F)N(C2)C1=O [Example 19]", 1.3),
]
